I'd be grateful if you could share measured IC50 for these entries.
- subject of test: PHD1 (EGLN2) (Homo sapiens (Human), UniProt Q96KS0)
- Sequence (Q96KS0 whole entry): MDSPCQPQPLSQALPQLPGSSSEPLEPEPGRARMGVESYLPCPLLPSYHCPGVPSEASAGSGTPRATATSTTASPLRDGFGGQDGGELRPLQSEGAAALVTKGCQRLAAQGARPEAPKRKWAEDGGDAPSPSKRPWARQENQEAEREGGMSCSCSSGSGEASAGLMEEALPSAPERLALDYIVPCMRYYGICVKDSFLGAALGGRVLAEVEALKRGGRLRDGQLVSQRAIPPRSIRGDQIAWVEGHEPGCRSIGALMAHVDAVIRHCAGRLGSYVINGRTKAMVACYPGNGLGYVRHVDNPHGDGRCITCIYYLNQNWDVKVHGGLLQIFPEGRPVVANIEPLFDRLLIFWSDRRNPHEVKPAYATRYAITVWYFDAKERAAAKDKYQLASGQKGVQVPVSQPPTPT
- method: HIF-PH assay (14CO2 capture), PHD1 enzyme inhibition
- Assay type: biochemical
- measurement setup: Table 1; individual measurement; read-out: IC50 (μM) PHD1
One number for each entry, in µM.

The cases that follow already have their IC50 on record.
N#Cc1nc(C(=O)NCC2(C(=O)O)CCC2)c(O)c2ccc(OC3CCCCC3)cc12 | 0.91
O=C(O)CCCCNC(=O)c1ncc2cc(Sc3ccccc3)ccc2c1O | 13.5
CC(C)(CNC(=O)c1nc(C#N)c2cc(Oc3cc(F)ccc3Cl)ccc2c1O)C(=O)O | 0.53
N#Cc1nc(C(=O)NCCCCC(=O)O)c(O)c2ccc(Oc3ccccc3)cc12 | 0.42
O=C(O)CCNC(=O)c1ncc2cc(Oc3ccccn3)ccc2c1O | 4.57

Go through the items and report each one's IC50.
1. CC(C)(CNC(=O)c1nc(C#N)c2cc(Oc3ccccc3F)ccc2c1O)C(=O)O
2. N#Cc1nc(C(=O)N[C@H](CC(=O)O)Cc2ccccc2)c(O)c2ccc(Oc3ccccc3)cc12
3. Cc1ccc(Oc2ccc3c(O)c(C(=O)NCC(C)(C)C(=O)O)nc(C#N)c3c2)cc1
4. N#Cc1nc(C(=O)N[C@H]2CC[C@H](C(=O)O)CC2)c(O)c2ccc(Oc3ccccc3)cc12
5. N#Cc1nc(C(=O)NC(CC(=O)O)c2cccnc2)c(O)c2ccc(Oc3ccccc3)cc12 (stereo not shown)
6. N#Cc1nc(C(=O)NCC2(C(=O)O)CCS(=O)(=O)CC2)c(O)c2ccc(Oc3ccccc3)cc12
7. N#Cc1nc(C(=O)N[C@H]2CCC[C@H]2C(=O)O)c(O)c2ccc(Oc3ccccc3)cc12 (relative stereo)

Reply:
0.55
3.43
0.28
14.1
6.75
3.76
16.9

Please look at the items below and tell me IC50 for each one, in order.
1. N#Cc1nc(C(=O)NCC2(C(=O)O)CCC2)c(O)c2ccc(S(=O)(=O)C3CCCCC3)cc12
2. CC(C)(CNC(=O)c1ncc2cc(-c3ccc(F)cc3)ccc2c1O)C(=O)O
3. CC(C)(CNC(=O)c1nc(C#N)c2cc(Oc3cccnc3)ccc2c1O)C(=O)O
4. CC(C)(C)OC(=O)N[C@@H](CNC(=O)c1nc(C#N)c2cc(Oc3ccccc3)ccc2c1O)C(=O)O

Reply:
1: 19.8; 2: 22.9; 3: 3.27; 4: 19.1

###

- subject of test: PHD1 (EGLN2) (Homo sapiens (Human), UniProt Q96KS0)
- method: HIF-PH assay (14CO2 capture), PHD1 enzyme inhibition
- Type: biochemical
- measurement setup: Table 1; individual measurement; read-out: IC50 (μM) PHD1
measured property: IC50 (µM)
Answers are plain numbers, in µM.

N#Cc1nc(C(=O)NCC2(C(=O)O)CCC2)c(O)c2ccc(Oc3cccnc3)cc12 [Compound 28] | 1.3
CC(C)(CNC(=O)c1nc(C#N)c2cc(OC3CCCCC3)ccc2c1O)C(=O)O [Compound 156] | 1.49

Parameter requested: IC50. Apply to each item below.
1. COC(=O)N[C@H](CCNC(=O)c1nc(C#N)c2cc(Oc3ccccc3)ccc2c1O)C(=O)O [Compound 53]
2. O=C(O)CCCCNC(=O)c1ncc2cc(-c3ccc(F)cc3)ccc2c1O [Compound 149]
3. O=C(NCC[C@H](O)C(=O)O)c1ncc2cc(Oc3ccccc3)ccc2c1O [Compound 7]
4. COc1ccc(Oc2ccc3c(O)c(C(=O)NC(C)(C)CC(=O)O)nc(C#N)c3c2)cc1 [Compound 21]
5. O=C(NCC1(C(=O)O)CCC1)c1ncc2cc(Oc3ccccc3)ccc2c1O [Compound 13]
6. N#Cc1nc(C(=O)NC[C@H](NC(=O)OCc2ccccc2)C(=O)O)c(O)c2ccc(Oc3ccccc3)cc12 [Compound 87]

Reply:
[0.24, 18.5, 3.02, 0.24, 5.51, 3.56]
